- study.target: GST-PLK2 (Homo sapiens, UniProt Q9NYY3)
- Construct: purchased CarnaBio
- Sequence (Q9NYY3 whole entry): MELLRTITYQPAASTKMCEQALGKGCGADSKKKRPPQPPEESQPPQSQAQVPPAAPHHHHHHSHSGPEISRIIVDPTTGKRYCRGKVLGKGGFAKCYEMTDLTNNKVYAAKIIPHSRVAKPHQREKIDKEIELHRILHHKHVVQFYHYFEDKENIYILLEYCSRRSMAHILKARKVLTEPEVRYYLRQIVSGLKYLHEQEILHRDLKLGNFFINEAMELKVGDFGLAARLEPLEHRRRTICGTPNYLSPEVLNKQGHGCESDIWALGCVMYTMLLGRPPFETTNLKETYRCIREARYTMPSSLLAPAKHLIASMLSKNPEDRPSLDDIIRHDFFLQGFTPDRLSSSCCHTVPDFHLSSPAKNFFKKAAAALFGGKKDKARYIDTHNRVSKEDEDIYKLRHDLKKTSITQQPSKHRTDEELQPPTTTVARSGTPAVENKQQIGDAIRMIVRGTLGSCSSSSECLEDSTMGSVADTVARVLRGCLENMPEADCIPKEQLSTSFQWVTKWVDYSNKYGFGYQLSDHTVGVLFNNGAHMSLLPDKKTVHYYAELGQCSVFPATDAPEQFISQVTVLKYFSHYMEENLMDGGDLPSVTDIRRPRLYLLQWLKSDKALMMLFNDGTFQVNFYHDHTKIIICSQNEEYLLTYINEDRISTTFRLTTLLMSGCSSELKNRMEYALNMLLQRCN
- protocol.notes: PLK TR-FRET peptide assay, PLK2
- Format: biochemical
- run.conditions: PLK TR-FRET peptide assay, GST-PLK2; read-out: Plk2 IC50
assay.metric: IC50

// each compound listed below needs its IC50
1. CC[C@@H]1C(=O)N(C)c2cnc(-n3cnc(Br)c3)nc2N1C1CCCC1 [Example 43]
2. CCC1C(=O)N(C)c2cnc(-n3ccnc3)nc2N1c1cn[nH]c1 (centres unmarked) [Example 343]
3. CCOC(=O)c1cnn(-c2ncc3c(n2)N(C2CCCC2)[C@H](CC)C(=O)N3C)c1 [Example 18]
4. CN1C(=O)[C@]2(C)CCCN2c2nc(-n3ccnc3-c3ccccc3)ncc21 [Example 80]
5. CCC1C(=O)N(C)c2cnc(-n3ccnc3-c3ccc(F)cc3)nc2N1c1ccccc1 (centres unmarked) [Example 291]
6. CC[C@@]12CCCN1c1nc(-n3ncnc3-c3ccccc3)ncc1N(C)C2=O [Example 189]
7. CC[C@@]12COCCN1c1nc(-n3ccnc3-c3ccc(F)cc3F)ncc1N(C)C2=O [Example 376]

(A)
< 1000 nM
1000 to 10000 nM
1000 to 10000 nM
< 1000 nM
< 1000 nM
< 1000 nM
< 1000 nM

// each compound listed below needs its IC50
1. CC[C@@H]1C(=O)N(C)c2cnc(-n3ccnc3-c3ccncc3)nc2N1C1CCCC1 [Example 83]
2. CC[C@@H]1C(=O)N(C)c2cnc(-n3nccc3-c3ccccc3)nc2N1C(C)C [Example 188]
3. CC[C@@H]1C(=O)N(C)c2cnc(-n3cc(C(=O)N(C)C)cn3)nc2N1C1CCCC1 [Example 39]
4. CC[C@@]12COCCN1c1nc(-n3ccnc3-c3nccs3)ncc1N(C)C2=O [Example 387]
5. CC[C@@H]1C(=O)N(C)c2cnc(-n3cc(C(=O)N4CCOCC4)cn3)nc2N1C1CCCC1 [Example 41]
6. CC[C@@H]1C(=O)N(C)c2cnc(-c3ccn(C)c(=O)c3)nc2N1C1CCCC1 [Example 19]
7. CC[C@]12COCCN1c1nc(-c3cn[nH]c3-c3ccc(F)cc3F)ncc1N(C)C2=O [Example 412]

(A)
1. < 1000 nM
2. < 1000 nM
3. 1000 to 10000 nM
4. < 1000 nM
5. 1000 to 10000 nM
6. < 1000 nM
7. 1000 to 10000 nM

// each compound listed below needs its IC50
1. CC[C@@]12COCCN1c1nc(-c3ccncc3-c3ccccc3)ncc1N(C)C2=O [Example 395]
2. CCC1C(=O)N(C)c2cnc(-n3ccnc3-c3ccccc3)nc2N1NC(=O)OC(C)(C)C (centres unmarked) [Example 275]
3. CCC1C(=O)N(C)c2cnc(-c3c[nH]nc3-c3ccc(F)cc3F)nc2N1c1ccn(C)n1 (centres unmarked) [Example 420]

(A)
["< 1000 nM", "10000 to 50000 nM", "< 1000 nM"]

====

- study.target: GST-PLK2 (Homo sapiens, UniProt Q9NYY3)
- Construct: purchased CarnaBio
- protocol.notes: PLK TR-FRET peptide assay, PLK2
- Assay type: biochemical
- run.conditions: PLK TR-FRET peptide assay, GST-PLK2; read-out: Plk2 IC50
Provide the reported IC50 of each item.

// each molecule listed below needs its IC50
1. CCC12COCCN1c1nc(-n3ccnc3-c3ccccc3)ncc1N(C)C2=O (racemic) [Example 317]
2. CC[C@@H]1C(=O)N(C)c2cnc(-n3ccnc3)nc2N1C1CCCC1 [Example 3]
3. CC[C@@H]1C(=O)N(C)c2cnc(-n3ccnc3-c3cncnc3)nc2N1C1CCC1 [Example 176]
4. CC[C@@H]1C(=O)N(C)c2cnc(-n3ccnc3-c3ccccc3)nc2N1c1cnn(C)c1 [Example 409]
5. CC[C@@H]1C(=O)N(C)c2cnc(-n3ccnc3-c3cn[nH]c3)nc2N1C1CCCC1 [Example 97]
6. CC[C@@H]1C(=O)N(C)c2cnc(-n3ccnc3-c3cccnc3)nc2N1C(C)C [Example 154]
7. CC[C@@]12COCCN1c1nc(-n3ccnc3-c3ccc(F)cn3)ncc1N(C)C2=O [Example 380]
8. CC[C@@H]1C(=O)N(C)c2cnc(-n3ccc(=N)cc3)nc2N1C1CCCC1 [Example 73]

(A)
["< 1000 nM", "< 1000 nM", "< 1000 nM", "< 1000 nM", "< 1000 nM", "< 1000 nM", "< 1000 nM", "1000 to 10000 nM"]

// each molecule listed below needs its IC50
1. CC[C@]12COCCN1c1nc(-n3ccnc3-c3ccc(F)cc3F)ncc1N(C)C2=O [Example 377]
2. CC[C@]12COCCN1c1nc(-n3ccnc3-c3nccs3)ncc1N(C)C2=O [Example 386]
3. CC[C@@H]1C(=O)N(C)c2cnc(-n3ccnc3-c3ccc(F)cc3)nc2N1c1ccn(C)n1 [Example 407]
4. CC[C@@]12CCCN1c1nc(-n3ccnc3-c3ccccc3)ncc1N(C)C2=O [Example 76]
5. CC[C@@H]1C(=O)N(C)c2cnc(-n3ccnc3-c3cccnn3)nc2N1C(C)C [Example 152]

(A)
10000 to 50000 nM
> 50000 nM
< 1000 nM
< 1000 nM
< 1000 nM

// each molecule listed below needs its IC50
1. CC[C@H]1C(=O)N(C)c2cnc(-n3ccnc3-c3ccc(F)cc3)nc2N1c1ccn(C)n1 [Example 408]
2. CC[C@@H]1C(=O)N(C)c2cnc(-n3ncnc3-c3ccccc3)nc2N1C(C)C [Example 195]
3. CC[C@@H]1C(=O)N(C)c2cnc(-c3n[nH]cc3-c3ccccc3)nc2N1C1CCCC1 [Example 245]
4. CCC12CN(C)CCN1c1nc(-n3ccnc3-c3ccccc3)ncc1N(C)C2=O (racemic) [Example 371]

(A)
1000 to 10000 nM
< 1000 nM
< 1000 nM
< 1000 nM
